Reference for the values: paper PMC12736270

tested on: intracellular amastigotes of the Tulahuen strain; test: Intracellular amastigote assay, Tulahuen β-galactosidase strain in Vero cells; type: cell-based, Trypanosoma cruzi; details: Trypanosoma cruzi, TULAHUEN; intracellular amastigotes infecting Vero cells, 72 h; read-out: Activity on Tul Amastigotes
EXPERIMENTAL_ENDPOINT: EC50 (µM)
State the answer as a number, implicitly in µM.

Past entries and their recorded results:
>>> df
                            compound_smiles  experimental_endpoint  result_units  quantitative_result
0  CCCCOCCOc1ccc(-c2ccc3c(c2)/C=C(/C(=O)Nc2ccc([S@@+]([O-])Cc4cncn4CCC)cc2)CCCN3CC(C)C)cc1                   EC50            µM                 4.76
1  CC(F)(F)c1cc(F)ccc1-c1sc2cc(O)ccc2c1Oc1ccc(/C=C/C(=O)O)cc1                   EC50            µM                 19.4

// moving on: another record for EC50
Notebook: "Cc1ccc(-n2nc(C(C)(C)C)cc2NC(=O)Nc2ccc(OCCN3CCOCC3)c3ccccc23)cc1" , EC50 read as 11
